# Experimental System: T1, PSMA Fab
# T1 construct: Used biotinylated and captured on neutravidin plates in the phage ELISA; also called Anti-PSMA Fab; 006 PSMA Fab
# Test Details: phage ELISA; biotinylated PSMA Fab on neutravidin plate, pre-incubated with PSMA antigen as competitor; anti-M13-HRP
Where no end group is shown, it is not given here.
Listing of entries alongside the reported Phage binding ELISA signal, Anti-PSMA Fab in presence of PSMA antigen.

Look up Phage binding ELISA signal, Anti-PSMA Fab in presence of PSMA antigen for this binder: DYSVCRPAWMCQGF (cysteine pairing not given here; also: fused to phage pIII, also called Peptide-180 library clone) [Phage-3729]
0.0699

Try the binder YSISCVPQWMCEGF (also called Peptide-180 library clone) [Phage-3742]
0.0591

Entry to check: ADVRCVPDWMCWGM (also called Peptide-180 library clone) [Phage-3733]
0.0602

Same for LYKECVPQWMCSGF (also called Peptide-180 library clone) [Phage-3731]
0.0798

Record: ELPVCRPSWMCGGL (also called Peptide-180 library clone) [Phage-3734]
0.0603

Check VSHHCVPAWMCFGL (also called Peptide-180 library clone) [Phage-3737] too.
0.0946

Consider next the binder QVKYCIPEWMCSSF (also called Peptide-180 library clone) [Phage-3735] in the same way.
0.0671
